Measured Emax, listed per entry.
# STUDY SYSTEM: KCNQ2/3 channels (Homo sapiens, UniProt O43525+O43526)
# Construct: expressed in transfected cells; host or cells: CHO-K1 cells, kept under selection antibiotics
# ASSAY OVERVIEW: Fluorescence assay using a voltage sensitive dye (fluorimetry)
# Format: cell-based
# EXPERIMENTAL CONTEXT: CHO-K1 cells expressing KCNQ2/3 channels; relative to retigabine = 100%; read-out: Fluorimetry % efficacy (retigabine = 100%)
Don't forget the unit after the value.

Cc1c(C(=O)NCc2cccc(F)c2)c(N2CCCC2)nc2cc(C(F)(F)F)ccc12    186%
Cc1c(C(=O)NCc2cccc(F)c2)c(N(C)C)nc2cc(C(F)(F)F)ccc12    140%

Then there is this compound:
[ask] Sample Cc1c(C(=O)NCc2ccc(F)cc2)c(N(C)C)nc2cc(C(F)(F)F)ccc12 — what was its Emax?
[reply] 105%

---

# STUDY SYSTEM: KCNQ2/3 channels (Homo sapiens, UniProt O43525+O43526)
# ASSAY OVERVIEW: Fluorescence assay using a voltage sensitive dye (fluorimetry)
# EXPERIMENTAL CONTEXT: CHO-K1 cells expressing KCNQ2/3 channels
Consider the cut-off 600 nM. If the recorded EC50 is strictly smaller, the label is 1; if not, the label is -1.

Cc1c(C(=O)NCc2cccc(F)c2)c(N(C)C)nc2cc(C(F)(F)F)ccc12    1
CCN(CC)c1nc2cc(C(F)(F)F)ccc2c(C)c1C(=O)NCc1cccc(F)c1    1
CCNc1nc2cc(C(F)(F)F)ccc2c(C)c1C(=O)NCc1ccc(F)cc1    1
CNc1nc2cc(C(F)(F)F)ccc2c(C)c1C(=O)NCc1cccc(F)c1    1
Cc1c(C(=O)NCc2cccc(F)c2)c(N2CCCC2)nc2cc(C(F)(F)F)ccc12    -1
Cc1c(C(=O)NCc2cccc(F)c2)c(N2CCOCC2)nc2cc(C(F)(F)F)ccc12    -1
CCN(CC)c1nc2cc(C(F)(F)F)ccc2c(C)c1C(=O)NCc1ccc(F)cc1    -1
CCNc1nc2cc(C(F)(F)F)ccc2c(C)c1C(=O)NCc1cccc(F)c1    1

Note: attention shifts to another entry.
[ask] I'd appreciate it if you could check whether Cc1c(C(=O)NCc2ccc(F)cc2)c(N(C)C)nc2cc(C(F)(F)F)ccc12 has EC50 smaller than 600 nM.
[reply] 1

---

# STUDY SYSTEM: KCNQ2/3 channels (Homo sapiens, UniProt O43525+O43526)
# Construct: expressed in transfected cells; host or cells: CHO-K1 cells, kept under selection antibiotics
# ASSAY OVERVIEW: Fluorescence assay using a voltage sensitive dye (fluorimetry)
# Format: cell-based
# EXPERIMENTAL CONTEXT: CHO-K1 cells expressing KCNQ2/3 channels; relative to retigabine = 100%; read-out: Fluorimetry % efficacy (retigabine = 100%)
Measured Emax, listed per entry.
Your answer should be a plain number; it is taken to be in %.

Solved entries:
CCN(CC)c1nc2cc(C(F)(F)F)ccc2c(C)c1C(=O)NCc1ccc(F)cc1    205
Cc1c(C(=O)NCc2ccc(F)cc2)c(N2CCCC2)nc2cc(C(F)(F)F)ccc12    204
CCN(CC)c1nc2cc(C(F)(F)F)ccc2c(C)c1C(=O)NCc1cccc(F)c1    199

[ask] Sample CCNc1nc2cc(C(F)(F)F)ccc2c(C)c1C(=O)NCc1cccc(F)c1 — what was its Emax?
[reply] 141

These data points were gathered from patent US8470852B2.
